Where do the numbers come from? From patent US20050209278A1.

- TARGET: MMP-13 (Homo sapiens)
- Construct: made in house; host or cells: baculovirus / insect cells
- TEST SUMMARY: In vitro MMP inhibition, Ki determination (fluorogenic substrate II)
- Type: biochemical
- ASSAY CONDITIONS: value not in parenthesis; read-out: MMP-13 Ki
pKi: −log10 of the molar value.
ATTRIBUTE MEASURED: pKi

1. CCCCOc1ccc(N2CCN(S(=O)(=O)C3(C(=O)NO)CCN(c4ccc(OC)cc4)CC3)CC2)cc1
2. COCCN1CCC(C(=O)NO)(S(=O)(=O)N2CCN(c3ccc(OCCC(C)C)cc3)CC2)CC1
3. CCCCOc1ccc(N2CCN(S(=O)(=O)C3(C(=O)NO)CCN(c4ccc(OC)c(OC)c4)CC3)CC2)cc1
4. COCCN1CCC(C(=O)NO)(S(=O)(=O)N2CCN(c3ccc(CCCCC(C)C)cc3)CC2)CC1
Q. In a descending ranking, list each entry from above by its pKi, from the largest value down to the smallest. Answer format: list of labels, ordered as asked.
A. 2, 4, 3, 1

a. CCCCOc1ccc(N2CCN(S(=O)(=O)C3(C(=O)NO)CCN(c4ccc(N(C)C)cc4)CC3)CC2)cc1
b. CCCCOc1ccc(N2CCN(S(=O)(=O)C3(C(=O)NO)CCN(c4ccc(C)nc4)CC3)CC2)cc1
c. CCCCc1ccc(N2CCN(S(=O)(=O)C3(C(=O)NO)CCN(c4ncccn4)CC3)CC2)nc1
Q. Order the records, beginning with the lowest pKi and ending with the highest. Answer format: list of labels, ordered as asked.
A. a, b, c
(a: 8.97, b: 9.21, c: 9.52)
